Data credit: patent US20140329863A1

assay: Hepatic microsomal stability, dog; format: in vitro ADME; settings: beagle, liver microsomes, pH 7.4; male dog microsomes, * extrapolated; read-out: t1/2 Dog Male (extrapolated)
measurement-kind: half-life at 1 μM

1. Cc1cccc(Nc2nc(-c3ccc(-c4ccccc4)cc3)cs2)n1 [IND24]    2.33 h

====

Examples of molecules with documented half-life at 1 μM follow.
test: Hepatic microsomal stability, human; settings: human, human liver microsomes, pH 7.4
measurement-kind: half-life at 1 μM (min)

1) Cc1ccnc(Nc2nc(-c3ccncc3)cs2)c1 [IND52]    36
2) Cc1ccnc(Nc2nc(-c3ccc(-c4ccccn4)s3)cs2)c1 [IND81]    52
3) Cc1ccc(Nc2nc(-c3cc(-c4ccccc4)no3)cs2)nc1 [IND33]    54

====

assay: Hepatic microsomal stability, mouse; conditions: mouse, mouse liver microsomes, pH 7.4
measurement-kind: half-life at 1 μM (min)

1) CCOc1ccc(Nc2nc(-c3c(C)nc4sccn34)cs2)cc1    9.64
2) COc1ccc(S(=O)(=O)N2CCOc3ccccc32)cc1    1.53
3) NC(=O)c1ccccc1NC(=O)c1cccnc1N1CCCCC1    6.35
4) COc1cccc(N2CCN(C(=O)c3cc(C)ccc3OC)CC2)c1    3.2
5) CCOc1ccccc1C1C(C#N)=C(N)Oc2cc(N(C)C)ccc21 (stereo not shown)    1.71
6) O=C(Cc1ccc(-c2ccccc2)cc1)NCc1ccccc1    12.3
7) Cc1c(C(=O)OC(C)C)[nH]c2c1C(=O)CC(c1cccs1)C2 (stereo not shown)    6.88

====

assay: Hepatic microsomal stability, mouse; conditions: mouse liver microsomes, 60-min incubation
Each entry below carries its reported % remaining after a 60-min incubation, Mouse.
measurement-kind: % remaining after a 60-min incubation, Mouse (%)

1. Cc1ccnc(Nc2nc(-c3ccc(-c4ccccn4)s3)cs2)c1 [IND81]    10
2. COc1ccc(Nc2nc(-c3ccc(OC)c(OC)c3)cs2)nc1 [IND44]    24
3. Cc1cccc(Nc2nc(-c3ccc(-c4ccccc4)cc3)cs2)n1 [IND24]    89
4. COc1ccc(-c2csc(Nc3cc4ccccc4cn3)n2)cc1OC [IND46]    58
5. Cc1cccc(Nc2nc(-c3cc4ccccc4o3)cs2)n1 [IND22]    40
6. C(=N\Nc1ccc(-c2cnco2)cc1)/c1ccncc1 [Compound B, reference compound]    29
7. Cc1ccc(Nc2nc(-c3cc(-c4ccccc4)no3)cs2)nc1 [IND33]    111
8. COc1ccc(-c2csc(Nc3ccc4ccccc4n3)n2)cc1OC [IND47]    56
9. Cc1ccnc(Nc2nc(-c3ccncc3)cs2)c1 [IND52]    0
10. c1ccc2cc(Nc3nc(-c4ccncc4)cs3)ncc2c1 [IND85]    6

====

Below, each entry is listed alongside its reported concentration at 3 days.
test: Multidose (three-day) pharmacokinetics in liquid diet in FVB mice; settings: FVB, mouse, in vivo, 130 mg/kg, Brain Concentration (Css), three-day dosing in liquid diet, brain
measurement-kind: concentration at 3 days (nM)

1. COc1ccc(-c2csc(Nc3ccc4ccccc4n3)n2)cc1OC    400
2. Cc1cccc(Nc2nc(-c3cc4ccccc4o3)cs2)n1    3740
3. Cc1ccc(Nc2nc(-c3cc(-c4ccccc4)no3)cs2)nc1    30000
4. c1ccc2cc(Nc3nc(-c4cc5ccccc5o4)cs3)ncc2c1    260
5. Cc1ccnc(Nc2nc(-c3ccncc3)cs2)c1    2340
6. COc1ccc(-c2csc(Nc3cc4ccccc4cn3)n2)cc1OC    140
7. c1ccc2cc(Nc3nc(-c4ccncc4)cs3)ncc2c1    40
8. Cc1cccc(Nc2nc(-c3ccc(-c4ccccc4)cc3)cs2)n1    31800
